Entries and their concentration at 0.5 h
experiment: Drug level in NMRI mouse brain at 3 mg/kg, ip after 30 mins by HPLC/MS/MS analysis; assay type: ADME, organism-based; set-up: dose 3 mg/kg, route intraperitoneal; conditions: read-out: Drug uptake
# number only, unit nM dropped from output

| Molecule | Display unit | concentration at 0.5 h |
| --- | --- | --- |
| CCC1(CCCCN2CCN(c3cccc(Cl)c3)CC2)C(=O)Nc2ccccc21 (stereo not drawn) | nM | 613 |
| CCC1(CCCCN2CCN(c3ccc(Cl)cc3)CC2)C(=O)Nc2ccc(Cl)cc21 (stereo not drawn) | nM | 23 |

Moving on to another molecule below.
QUERY: Need concentration at 0.5 h, item CCC1(CCCCN2CCN(c3ccc(Cl)cc3)CC2)C(=O)Nc2ccccc21 (stereo not drawn)
RESULT: 141

###

assay: Drug level in NMRI mouse brain at 1 mg/kg, ip after 30 mins by HPLC/MS/MS analysis; type: ADME, organism-based; parameters: dose 1 mg/kg, route intraperitoneal; conditions: read-out: Drug uptake
Assay endpoint: concentration at 0.5 h (nM)
# number only, unit nM dropped from output

Some entries whose results are on file:
| Compound | Observed result |
| --- | --- |
| CCC1(CCCCN2CCN(c3cccc(Cl)c3)CC2)C(=O)Nc2ccccc21 (stereo not drawn) | 65 |
| CCC1(CCCCN2CCN(c3ccc(Cl)cc3)CC2)C(=O)Nc2ccc(F)cc21 (stereo not drawn) | 51 |

Moving on to another compound below.
QUERY: Need concentration at 0.5 h, item O=C1Nc2ccccc2C1CCCCN1CCN(c2cccc(Cl)c2)CC1 (stereo not drawn)
RESULT: 216

###

Entries and their concentration at 0.5 h
assay: Drug level in NMRI mouse brain at 10 mg/kg, ip after 30 mins by HPLC/MS/MS analysis; assay type: ADME, organism-based; parameters: dose 10 mg/kg, route intraperitoneal; conditions: read-out: Drug uptake
Number first, unit second: that is the form wanted.

Some entries whose results are on file:
| Compound | concentration at 0.5 h |
| --- | --- |
| CCC1(CCCCN2CCN(c3ccc(F)cc3)CC2)C(=O)Nc2ccccc21 (stereo not drawn) | 364 nM |
| CCC1(CCCCN2CCN(c3ccc(Cl)cc3)CC2)C(=O)Nc2ccc(F)cc21 (stereo not drawn) | 342 nM |
| O=C1Nc2ccccc2C1CCCCN1CCN(c2cccc(Cl)c2)CC1 (stereo not drawn) | 4310 nM |
| CCC1(CCCCN2CCN(c3ccc(Cl)cc3)CC2)C(=O)Nc2ccc(Cl)cc21 (stereo not drawn) | 27 nM |
| CCC1(CCCCN2CCN(c3ccc(Cl)cc3)CC2)C(=O)Nc2ccccc21 (stereo not drawn) | 379 nM |

QUERY: Need concentration at 0.5 h, item CCC1(CCCCN2CCN(c3cccc(Cl)c3)CC2)C(=O)Nc2ccccc21 (stereo not drawn)
RESULT: 824 nM

QUERY: Need concentration at 0.5 h, item CCC1(CCCCN2CCN(c3ccc(Cl)cc3)CC2)C(=O)Nc2cc(F)ccc21 (stereo not drawn)
RESULT: 135 nM

QUERY: Need concentration at 0.5 h, item CCC1(CCCCN2CCN(c3ccc(Cl)c(Cl)c3)CC2)C(=O)Nc2ccccc21 (stereo not drawn)
RESULT: 1150 nM

###

test: Metabolic stability in human liver microsomes after 60 mins by HPLC-MS/MS analysis; assay type: ADME, Microsome; conditions: read-out: Stability
Entries and their remaining at 1 h
# number only, unit % dropped from output

Some entries whose results are on file:
| Molecule | remaining at 1 h [%] |
| --- | --- |
| CCC1(CCCCN2CCN(c3ccc(Cl)cc3)CC2)C(=O)Nc2ccc(F)cc21 (stereo not given) | 36 |
| CCC1(CCCCN2CCN(c3ccc(Cl)cc3)CC2)C(=O)Nc2c1cc(Cl)c(F)c2Cl (stereo not given) | 76 |
| O=C1Nc2ccc(F)cc2C1CCCCN1CCN(c2ccc(Cl)cc2)CC1 (stereo not given) | 44 |

QUERY: Need remaining at 1 h, item CCC1(CCCCN2CCN(c3ccc(Cl)cc3Cl)CC2)C(=O)Nc2ccccc21 (stereo not given)
RESULT: 28

QUERY: Need remaining at 1 h, item CCC1(CCCCN2CCN(c3ccc(Cl)cc3)CC2)C(=O)Nc2ccccc21 (stereo not given)
RESULT: 34

###

biological target: 5-hydroxytryptamine receptor 1A (Rattus norvegicus) (UniProt P19327); assay: Displacement of [3H]8-OH-DPAT from 5-HT1A receptor in rat frontal cortex membrane at 10^-7 M after 45 mins by scintillation counting; format: cell membranes
Sequence (P19327 whole entry): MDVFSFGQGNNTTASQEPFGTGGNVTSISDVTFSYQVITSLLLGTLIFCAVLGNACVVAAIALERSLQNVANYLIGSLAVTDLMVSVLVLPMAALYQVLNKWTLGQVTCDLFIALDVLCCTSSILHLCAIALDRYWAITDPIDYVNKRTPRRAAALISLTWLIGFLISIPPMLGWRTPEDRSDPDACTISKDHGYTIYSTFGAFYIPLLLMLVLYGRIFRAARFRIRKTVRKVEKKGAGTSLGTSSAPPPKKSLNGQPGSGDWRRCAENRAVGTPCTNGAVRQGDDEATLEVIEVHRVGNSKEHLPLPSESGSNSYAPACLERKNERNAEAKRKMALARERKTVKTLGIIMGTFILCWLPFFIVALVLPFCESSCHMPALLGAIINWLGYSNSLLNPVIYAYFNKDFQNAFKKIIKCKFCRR
Entries and their inhibition
# number only, unit % dropped from output

| Compound | inhibition / % |
| --- | --- |
| O=C1Nc2ccccc2C1CCCCN1CCN(c2ccc(F)cc2)CC1 (stereo not drawn) | 10 |
| O=C1Nc2ccc(F)cc2C1CCCCN1CCN(c2ccc(Cl)cc2)CC1 (stereo not drawn) | 0 |
| CCC1(CCCCN2CCN(c3ccc(Cl)cc3)CC2)C(=O)Nc2cc(F)ccc21 (stereo not drawn) | 9 |

QUERY: Need inhibition, item CCC1(CCCCN2CCN(c3ccc(F)cc3)CC2)C(=O)Nc2ccccc21 (stereo not drawn)
RESULT: 10

QUERY: Need inhibition, item CCC1(CCCCN2CCN(c3ccc(Cl)cc3)CC2)C(=O)Nc2ccc(F)cc21 (stereo not drawn)
RESULT: 9

QUERY: Need inhibition, item O=C1Nc2cc(F)ccc2C1CCCCN1CCN(c2ccc(Cl)cc2)CC1 (stereo not drawn)
RESULT: 6

QUERY: Need inhibition, item CCC1(CCCCN2CCN(c3ccc(Cl)cc3)CC2)C(=O)Nc2c1cc(Cl)c(F)c2Cl (stereo not drawn)
RESULT: 10

QUERY: Need inhibition, item CCC1(CCCCN2CCC(c3ccc(F)cc3)CC2)C(=O)Nc2ccccc21 (stereo not drawn)
RESULT: 11
